# test_system: Human C3 (human, UniProt P01024 23-1663)
# Sequence (P01024 23-1663 limits assumed): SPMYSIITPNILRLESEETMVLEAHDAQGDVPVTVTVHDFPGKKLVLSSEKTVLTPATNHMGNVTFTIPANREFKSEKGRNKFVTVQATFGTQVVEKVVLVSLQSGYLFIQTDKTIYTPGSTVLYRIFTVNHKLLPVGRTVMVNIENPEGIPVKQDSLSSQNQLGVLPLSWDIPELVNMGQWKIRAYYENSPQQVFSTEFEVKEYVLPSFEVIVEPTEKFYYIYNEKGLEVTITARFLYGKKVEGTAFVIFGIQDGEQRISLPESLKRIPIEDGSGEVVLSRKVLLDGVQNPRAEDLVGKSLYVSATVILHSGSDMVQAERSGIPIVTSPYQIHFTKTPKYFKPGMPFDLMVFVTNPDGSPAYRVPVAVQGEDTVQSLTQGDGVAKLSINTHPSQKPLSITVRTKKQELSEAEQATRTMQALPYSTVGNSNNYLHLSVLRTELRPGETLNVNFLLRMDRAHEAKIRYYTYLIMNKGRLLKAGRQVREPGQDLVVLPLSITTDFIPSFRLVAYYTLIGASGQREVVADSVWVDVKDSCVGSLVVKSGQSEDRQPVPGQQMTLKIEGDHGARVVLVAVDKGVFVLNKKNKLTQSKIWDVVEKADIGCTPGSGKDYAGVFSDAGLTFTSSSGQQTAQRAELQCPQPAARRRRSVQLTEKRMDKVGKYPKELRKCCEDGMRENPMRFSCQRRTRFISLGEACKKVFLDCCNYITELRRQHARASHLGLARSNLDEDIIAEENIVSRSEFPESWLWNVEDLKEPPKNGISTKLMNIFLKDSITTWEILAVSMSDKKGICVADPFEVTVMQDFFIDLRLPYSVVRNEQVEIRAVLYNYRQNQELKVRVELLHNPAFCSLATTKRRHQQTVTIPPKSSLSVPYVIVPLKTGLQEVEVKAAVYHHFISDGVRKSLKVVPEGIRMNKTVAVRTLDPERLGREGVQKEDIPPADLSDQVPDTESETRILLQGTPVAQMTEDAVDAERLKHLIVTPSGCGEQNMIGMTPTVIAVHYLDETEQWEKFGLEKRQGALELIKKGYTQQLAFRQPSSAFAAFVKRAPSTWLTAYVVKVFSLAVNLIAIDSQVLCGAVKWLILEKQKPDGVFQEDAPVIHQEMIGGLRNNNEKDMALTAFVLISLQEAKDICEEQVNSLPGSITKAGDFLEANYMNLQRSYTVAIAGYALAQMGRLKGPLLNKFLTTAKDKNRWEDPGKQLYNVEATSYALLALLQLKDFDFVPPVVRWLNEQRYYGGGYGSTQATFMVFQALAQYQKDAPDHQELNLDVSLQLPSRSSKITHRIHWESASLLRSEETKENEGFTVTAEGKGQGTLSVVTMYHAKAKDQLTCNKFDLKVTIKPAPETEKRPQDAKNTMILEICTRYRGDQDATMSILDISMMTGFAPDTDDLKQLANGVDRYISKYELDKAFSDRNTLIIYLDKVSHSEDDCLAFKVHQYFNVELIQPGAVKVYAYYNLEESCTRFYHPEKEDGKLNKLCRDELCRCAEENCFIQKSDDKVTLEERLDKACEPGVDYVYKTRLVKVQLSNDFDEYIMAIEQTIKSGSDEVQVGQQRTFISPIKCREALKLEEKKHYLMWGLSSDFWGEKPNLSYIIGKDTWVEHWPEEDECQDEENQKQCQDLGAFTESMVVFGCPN
# method_summary: cell-based or functional assay
Positions of bridges follow the written chain, without caps; N, C: chain ends.
value_type: IC50[nM], inhibition of hemolysis

binder="SEFAIWQDWGEHRCGEGEXXK (not fully specified; N-acetyl; C-terminal amide; delta-cystathionine (Ctt2) thioether bridge A4-hCys14 (hCys written C); W6 is 1-Me-Trp; G15 is Sar; X19 and X20 are Peg3; K21 side chain bears [17-carboxy-heptadecanoyl][γGlu]G[γGlu]) [Compound 146]" value_type="IC50[nM], inhibition of hemolysis" data_value="< 100 nM"
binder="Ac-ICIWQDWGEHRCE-NH2 (disulfide 2-12; SMILES CC[C@H](C)[C@H](NC(C)=O)C(=O)N[C@H]1CSSC[C@@H](C(=O)N[C@@H](CCC(=O)O)C(N)=O)NC(=O)[C@H](CCCNC(=N)N)NC(=O)[C@H](Cc2c[nH]cn2)NC(=O)[C@H](CCC(=O)O)NC(=O)CNC(=O)[C@H](Cc2c[nH]c3ccccc23)NC(=O)[C@H](CC(=O)O)NC(=O)[C@H](CCC(N)=O)NC(=O)[C@H](Cc2c[nH]c3ccccc23)NC(=O)[C@H]([C@@H](C)CC)NC1=O) [Compound 22]" value_type="IC50[nM], inhibition of hemolysis" data_value="< 100 nM"
binder="Ac-YCIWQDWGEHRCTGAES-NH2 (disulfide 2-12; SMILES CC[C@H](C)[C@@H]1NC(=O)[C@@H](NC(=O)[C@H](Cc2ccc(O)cc2)NC(C)=O)CSSC[C@@H](C(=O)N[C@H](C(=O)NCC(=O)N[C@@H](C)C(=O)N[C@@H](CCC(=O)O)C(=O)N[C@@H](CO)C(N)=O)[C@@H](C)O)NC(=O)[C@H](CCCNC(=N)N)NC(=O)[C@H](Cc2c[nH]cn2)NC(=O)[C@H](CCC(=O)O)NC(=O)CNC(=O)[C@H](Cc2c[nH]c3ccccc23)NC(=O)[C@H](CC(=O)O)NC(=O)[C@H](CCC(N)=O)NC(=O)[C@H](Cc2c[nH]c3ccccc23)NC1=O) [Compound 66]" value_type="IC50[nM], inhibition of hemolysis" data_value="< 100 nM"
binder="Ac-ICIWQDWGEHRCTE-NH2 (disulfide 2-12; SMILES CC[C@H](C)[C@H](NC(C)=O)C(=O)N[C@H]1CSSC[C@@H](C(=O)N[C@H](C(=O)N[C@@H](CCC(=O)O)C(N)=O)[C@@H](C)O)NC(=O)[C@H](CCCNC(=N)N)NC(=O)[C@H](Cc2c[nH]cn2)NC(=O)[C@H](CCC(=O)O)NC(=O)CNC(=O)[C@H](Cc2c[nH]c3ccccc23)NC(=O)[C@H](CC(=O)O)NC(=O)[C@H](CCC(N)=O)NC(=O)[C@H](Cc2c[nH]c3ccccc23)NC(=O)[C@H]([C@@H](C)CC)NC1=O) [Compound 26]" value_type="IC50[nM], inhibition of hemolysis" data_value="< 100 nM"

Shifting focus to the binder that follows.
Req: State the recorded IC50[nM], inhibition of hemolysis for this entry: Ac-ICIWQDWGAHSCT-NH2 (disulfide 2-12; SMILES CC[C@H](C)[C@H](NC(C)=O)C(=O)N[C@H]1CSSC[C@@H](C(=O)N[C@H](C(N)=O)[C@@H](C)O)NC(=O)[C@H](CO)NC(=O)[C@H](Cc2c[nH]cn2)NC(=O)[C@H](C)NC(=O)CNC(=O)[C@H](Cc2c[nH]c3ccccc23)NC(=O)[C@H](CC(=O)O)NC(=O)[C@H](CCC(N)=O)NC(=O)[C@H](Cc2c[nH]c3ccccc23)NC(=O)[C@H]([C@@H](C)CC)NC1=O) [Compound 19]
Resp: < 250 nM
